test: Thermodynamic solubility, shake-flask, 10 mM PBS (0.15 M KCl) pH 7, 25 °C, 1 h, HPLC-UV; details: 25 °C, pH 7, aqueous buffer, thermodynamic from solid, Solubility, Table S-3; pH 7, 25 °C
# solubility at 1 h >= 50 µg/mL gives t, anything below gives f

Is solubility at 1 h for COc1cc(-c2cn(C)c(=O)c3cc(C(=N)NC4CCS(=O)(=O)CC4)sc23)ccc1OCC(=O)NCCCCNC(=O)COc1cccc2c1C(=O)N(C1CCC(=O)NC1=O)C2=O (centres unmarked) at or above 50 µg/mL? t

Is solubility at 1 h for "Cc1ncsc1-c1ccc(CNC(=O)[C@@H]2C[C@H](O)CN2C(=O)[C@@H](NC(=O)COCCOCCOCCOCCOCCOCC(=O)N[C@H](C(=O)N2C[C@@H](O)C[C@H]2C(=O)NCc2ccc(-c3scnc3C)cc2)C(C)(C)C)C(C)(C)C)cc1" at or above 50 µg/mL? t

Is solubility at 1 h for COc1cc(C(=O)NCCOCCOCCOCCC(=O)Nc2cccc3c2C(=O)N(C2CCC(=O)NC2=O)C3=O)ccc1Nc1ncc(C(F)(F)F)c(Oc2cccc3c2C(=O)CC3)n1 (centres unmarked) at or above 50 µg/mL? f

Is solubility at 1 h for CC(=O)c1c(C)c2cnc(Nc3ccc(N4CCN(CCOCCOCCOCCNC(=O)COc5cccc6c5C(=O)N(C5CCC(=O)NC5=O)C6=O)CC4)cn3)nc2n(C2CCCC2)c1=O (centres unmarked) at or above 50 µg/mL? f

---

Experiment: Thermodynamic solubility, shake-flask, 10 mM PBS (0.15 M KCl) pH 7, 25 °C, 1 h, HPLC-UV
Settings: 25 °C, pH 7, aqueous buffer, thermodynamic from solid, Solubility log S, Table S-3; pH 7, 25 °C
Method: Its measurement only requires an initial DMSO stock solution which is precipitated by the addition of an aqueous phase.[23],[24] Here, we measured thermodynamic solubility, often determined in late lead optimization, which efficiently considers the solubility value when the equilibrium with the stable phase or polymorph has been reached. Solubility was determined in 10 mM PBS (0.15 M KCl) at pH 7, 25 °C. […]
Assignment: determine reported solubility at 1 h for the given molecules.
State the answer as a number, implicitly in µM.

Report measured solubility at 1 h; entry is COc1cc(-c2cn(C)c(=O)c3cc(C(=N)NC4CCS(=O)(=O)CC4)sc23)ccc1OCC(=O)NCCCCNC(=O)COc1cccc2c1C(=O)N(C1CCC(=O)NC1=O)C2=O (stereo not shown) 661

Report measured solubility at 1 h; entry is "Cc1ncsc1-c1ccc(CNC(=O)[C@@H]2C[C@H](O)CN2C(=O)[C@@H](NC(=O)COCCOCCOCCOCCOCCOCC(=O)N[C@H](C(=O)N2C[C@@H](O)C[C@H]2C(=O)NCc2ccc(-c3scnc3C)cc2)C(C)(C)C)C(C)(C)C)cc1" 331

Report measured solubility at 1 h; entry is Cc1ncsc1-c1ccc(CNC(=O)[C@@H]2C[C@@H](O)CN2C(=O)[C@@H](NC(=O)CCCCOCCCCCOCCCCCCNc2cccc3c2C(=O)N(C2CCC(=O)NC2=O)C3=O)C(C)(C)C)cc1 (stereo partly shown) 1.23

Report measured solubility at 1 h; entry is "COc1cc(-c2cn(C)c(=O)c3cnccc23)cc(OC)c1CN1CCN(CCCCCOc2cc(-c3scnc3C)ccc2CNC(=O)[C@@H]2C[C@@H](O)CN2C(=O)[C@@H](NC(=O)C2(F)CC2)C(C)(C)C)CC1" 50.1

Report measured solubility at 1 h; entry is "COc1cc2ncnc(Nc3ccc(F)c(Cl)c3)c2cc1OCCCCCOCCOCCC(=O)N[C@H](C(=O)N1C[C@H](O)C[C@H]1C(=O)NCc1ccc(-c2scnc2C)cc1)C(C)(C)C" 1.23

Report measured solubility at 1 h; entry is CC(C)(C)c1cnc(CSc2cnc(NC(=O)C3CCN(CC(=O)NCCOCCOCCOCCNc4cccc5c4C(=O)N(C4CCC(=O)NC4=O)C5=O)CC3)s2)o1 (stereo not shown) 52.5

---

Assay: Thermodynamic solubility, shake-flask, 10 mM PBS (0.15 M KCl) pH 7, 25 °C, 1 h, HPLC-UV
Conditions: 25 °C, pH 7, aqueous buffer, thermodynamic from solid, Exp.LogS, PROTAC pairs and building blocks; pH 7, 25 °C
Procedure: Its measurement only requires an initial DMSO stock solution which is precipitated by the addition of an aqueous phase.[23],[24] Here, we measured thermodynamic solubility, often determined in late lead optimization, which efficiently considers the solubility value when the equilibrium with the stable phase or polymorph has been reached. Solubility was determined in 10 mM PBS (0.15 M KCl) at pH 7, 25 °C. […]
Property Label: solubility at 1 h

Report measured solubility at 1 h; entry is "CC(=O)N1c2ccc(-c3ccc(C(=O)NCCOCCOCCOCC(=O)N[C@H](C(=O)N4C[C@H](O)C[C@H]4C(=O)NCc4ccc(-c5scnc5C)cc4)C(C)(C)C)cc3)cc2[C@H](Nc2ccc(Cl)cc2)C[C@@H]1C" 0.513 µM

Report measured solubility at 1 h; entry is "COc1cc(C(=O)NCCOCCOCCOCC(=O)N[C@H](C(=O)N2C[C@@H](O)C[C@H]2C(=O)NCc2ccc(-c3scnc3C)cc2)C(C)(C)C)ccc1Nc1ncc(C(F)(F)F)c(Oc2cccc3c2C(=O)CC3)n1" 0.575 µM

Report measured solubility at 1 h; entry is "COc1cc(C(=O)NCCOCCOCCOCC(=O)N[C@H](C(=O)N2C[C@H](O)C[C@H]2C(=O)NCc2ccc(-c3scnc3C)cc2)C(C)(C)C)ccc1Nc1ncc(C(F)(F)F)c(Oc2cccc3c2C(=O)CC3)n1" 2.63 µM

Report measured solubility at 1 h; entry is Cc1ncsc1-c1ccc(CNC(=O)[C@@H]2C[C@@H](O)CN2C(=O)[C@@H](N)C(C)(C)C)cc1.Cl [S,R,S-AHPC HCl] 2090 µM

Report measured solubility at 1 h; entry is "Cc1ncsc1-c1ccc(CNC(=O)[C@@H]2C[C@@H](O)CN2C(=O)[C@@H](NC(=O)COCCOCCOCCNC(=O)C[C@@H]2N=C(c3ccc(Cl)cc3)c3c(sc(C)c3C)-n3c(C)nnc32)C(C)(C)C)cc1" 38 µM

---

Assignment: determine reported solubility at 1 h for the given compounds.
assay: Thermodynamic solubility, shake-flask, 10 mM PBS (0.15 M KCl) pH 7, 25 °C, 1 h, HPLC-UV; conditions: pH 7, Exp.LogS, PROTAC pairs and building blocks; pH 7, 25 °C
State the value, then name its unit.

Report measured solubility at 1 h; entry is Cc1sc2c(c1C)C(c1ccc(Cl)cc1)=N[C@@H](CC(=O)NCCNc1cccc3c1C(=O)N(C1CCC(=O)NC1=O)C3=O)c1nnc(C)n1-2 (some centres unmarked) 30.2 µM

Report measured solubility at 1 h; entry is COC(=O)C[C@@H]1N=C(c2ccc(Cl)cc2)c2c(sc(C(=O)NCCCCCNc3cccc4c3C(=O)N(C3CCC(=O)NC3=O)C4=O)c2C)-n2c(C)nnc21 (some centres unmarked) 2.95 µM

---

assay: Thermodynamic solubility, shake-flask, 10 mM PBS (0.15 M KCl) pH 7, 25 °C, 1 h, HPLC-UV; settings: 25 °C, pH 7, aqueous buffer, thermodynamic from solid, Solubility log S, Table S-3; pH 7, 25 °C
Property Label: solubility at 1 h (µM)
State the answer as a number, implicitly in µM.

Report measured solubility at 1 h; entry is CC(=O)c1c(C)c2cnc(Nc3ccc(N4CCN(CCOCCOCCOCCNC(=O)COc5cccc6c5C(=O)N(C5CCC(=O)NC5=O)C6=O)CC4)cn3)nc2n(C2CCCC2)c1=O (centres unmarked) 17.8

Report measured solubility at 1 h; entry is "Cc1ncsc1-c1ccc(CNC(=O)[C@@H]2C[C@@H](O)CN2C(=O)[C@@H](NC(=O)COCCOCCOCCOCCOCCOCC(=O)N[C@H](C(=O)N2C[C@H](O)C[C@H]2C(=O)NCc2ccc(-c3scnc3C)cc2)C(C)(C)C)C(C)(C)C)cc1" 631

Report measured solubility at 1 h; entry is Cc1ncsc1-c1ccc(CNC(=O)[C@@H]2C[C@H](O)CN2C(=O)[C@@H](NC(=O)COCCOCCOCCNC(=O)C[C@@H]2N=C(c3ccc(Cl)cc3)c3c(sc(C)c3C)-n3c(C)nnc32)C(C)(C)C)cc1 [CisMZ1] 50.1

---

Assignment: determine reported ΔLog kw IAM for the given compounds.
conditions: log kw^IAM – clog kw^IAM
// response body must contain only the number

Report measured ΔLog kw IAM; entry is Cc1sc2c(c1C)C(c1ccc(Cl)cc1)=N[C@@H](CC(=O)O)c1nnc(C)n1-2 [JQ1 carboxylic acid] 1.76

Report measured ΔLog kw IAM; entry is CC(=O)N1c2ccc(-c3ccc(C(=O)O)cc3)cc2[C@H](Nc2ccc(Cl)cc2)C[C@@H]1C [I-BET726] 2.64

Report measured ΔLog kw IAM; entry is COc1cc(C(=O)NC2CCN(C)CC2)ccc1Nc1ncc(C(F)(F)F)c(Oc2cccc3c2C(=O)CC3)n1 [BI-4464] 1.23

Report measured ΔLog kw IAM; entry is Cc1ncsc1-c1ccc(CNC(=O)[C@@H]2C[C@H](O)CN2C(=O)[C@@H](N)C(C)(C)C)cc1.Cl.Cl [S,S,S-AHPC 2HCl] 2.05
